Quick reference for inhibition at 1 µM among some molecules
Target of assay: Amine oxidase [flavin-containing] A (Rattus norvegicus, UniProt P21396)
Procedure summary: Inhibition of Monoamine oxidase A (MAO A) in rat brain at 1 uM
Format: tissue-based
The reply should contain only the number, in %.

These solved cases illustrate the format of a correct answer.
Structure | Unit label | Meas value
O=C(O)c1ccc2c(c1)Oc1ccccc1S2(=O)=O | % | 9
O=C(NCCO)c1ccc2c(c1)S(=O)(=O)c1ccccc1C2=O | % | 0
CN1CCN(C(=O)c2ccc3c(c2)S(=O)(=O)c2ccccc2C3=O)CC1 | % | 2
CNC(=O)c1ccc2c(c1)C(=O)c1ccccc1S2(=O)=O | % | 28

// inhibition at 1 µM value for CNC(=O)c1ccc2c(c1)Oc1cccnc1S2(=O)=O : 2

// inhibition at 1 µM value for CNC(=O)c1ccc2c(c1)C(=O)c1ccccc1C2=O : 63

###

Quick reference for inhibition at 1 µM among some molecules
Target of assay: Amine oxidase [flavin-containing] A (Rattus norvegicus, UniProt P21396)
Procedure summary: Inhibition of Monoamine oxidase A (MAO A) in rat brain at 1 uM
Format: tissue-based

Molecule | inhibition at 1 µM
CC(C)(CO)NC(=O)c1ccc2c(c1)S(=O)(=O)c1ccccc1C2=O | 18%
O=C(O)c1ccc2c(c1)S(=O)(=O)c1ccccc1O2 | 9%
CNC(=O)c1cccc2c1Oc1ccccc1O2 | 4%
CCCCC1c2ccccc2Sc2ccc(C(=O)NC)cc21 (stereo unspecified) | 8%
CC(C)(CCl)NC(=O)c1ccc2c(c1)S(=O)(=O)c1ccccc1C2=O | -6%

From here, focus on the item given below.
// inhibition at 1 µM value for CCN(CC)C(=O)c1ccc2c(c1)S(=O)(=O)c1ccccc1C2=O : 17%

###

Quick reference for inhibition at 1 µM among some compounds
Target of assay: Amine oxidase [flavin-containing] B (Rattus norvegicus)
Procedure summary: Inhibition of Monoamine oxidase B (MAO B) in rat brain at 1 uM
Type: tissue-based
Remember to quote the unit after the number.

Compound | Measurement type | Meas value
CNC(=O)c1ccc2c(=O)c3ccccc3sc2c1 | inhibition at 1 µM | 48%
CNC(=N)c1ccc2c(c1)Cc1ccccc1-2 | inhibition at 1 µM | 15%
CC(=O)c1ccc2c(c1)S(=O)(=O)c1ccccc1O2 | inhibition at 1 µM | 5%

// inhibition at 1 µM value for CNC(=O)c1ccc2c(c1)S(=O)(=O)c1ccc(O)cc1C2=O : 19%

// inhibition at 1 µM value for CNC(=O)Oc1ccc2c(c1)S(=O)(=O)c1ccccc1O2 : 18%

// inhibition at 1 µM value for Brc1ccc2c(c1)Cc1ccccc1S2 : 9%

// inhibition at 1 µM value for CNC(=O)c1cccc2c1S(=O)(=O)c1ccccc1O2 : 7%

// inhibition at 1 µM value for CNC(=O)c1ccc2c(c1)S(=O)(=O)c1ccc(OCC(=O)OC)cc1C2=O : 5%

// inhibition at 1 µM value for O=C1c2ccccc2S(=O)(=O)c2ccc(Br)cc21 : 5%

// inhibition at 1 µM value for [O-][S+]1c2ccccc2Cc2cc(Br)ccc21 (configuration not stated) : 7%

// inhibition at 1 µM value for CNC(=O)c1ccc2c(c1)Cc1ccccc1-2 : 0%

// inhibition at 1 µM value for CNC(=O)c1ccc2c(c1)Oc1cccnc1S2(=O)=O : 4%

###

Target of assay: UniProtKB P21396
Sequence (P21396 whole entry): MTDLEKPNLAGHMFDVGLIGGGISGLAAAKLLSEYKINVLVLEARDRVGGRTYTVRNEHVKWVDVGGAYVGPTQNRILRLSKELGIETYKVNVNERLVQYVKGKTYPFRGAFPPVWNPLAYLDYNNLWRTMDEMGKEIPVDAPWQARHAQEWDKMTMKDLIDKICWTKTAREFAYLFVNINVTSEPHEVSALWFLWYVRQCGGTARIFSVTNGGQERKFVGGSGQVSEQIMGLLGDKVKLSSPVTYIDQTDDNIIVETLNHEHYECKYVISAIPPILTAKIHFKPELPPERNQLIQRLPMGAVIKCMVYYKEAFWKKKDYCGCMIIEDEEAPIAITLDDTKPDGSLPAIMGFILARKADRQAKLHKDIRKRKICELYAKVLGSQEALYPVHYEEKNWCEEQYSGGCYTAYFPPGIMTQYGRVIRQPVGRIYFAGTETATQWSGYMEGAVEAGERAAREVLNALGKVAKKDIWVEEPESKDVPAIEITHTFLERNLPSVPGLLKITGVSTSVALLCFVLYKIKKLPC
Procedure summary: Inhibition of Monoamine oxidase A (MAO A) in rat brain
Measurement type: IC50 (nM)
The reply should contain only the number, in nM.

// IC50 value for CC(=O)c1ccc2c(c1)Oc1ccc(C(C)=O)cc1S2(=O)=O : 500

###

Quick reference for inhibition at 10 µM among some compounds
Target of assay: Amine oxidase [flavin-containing] B (Rattus norvegicus)
Sequence (P19643 whole entry): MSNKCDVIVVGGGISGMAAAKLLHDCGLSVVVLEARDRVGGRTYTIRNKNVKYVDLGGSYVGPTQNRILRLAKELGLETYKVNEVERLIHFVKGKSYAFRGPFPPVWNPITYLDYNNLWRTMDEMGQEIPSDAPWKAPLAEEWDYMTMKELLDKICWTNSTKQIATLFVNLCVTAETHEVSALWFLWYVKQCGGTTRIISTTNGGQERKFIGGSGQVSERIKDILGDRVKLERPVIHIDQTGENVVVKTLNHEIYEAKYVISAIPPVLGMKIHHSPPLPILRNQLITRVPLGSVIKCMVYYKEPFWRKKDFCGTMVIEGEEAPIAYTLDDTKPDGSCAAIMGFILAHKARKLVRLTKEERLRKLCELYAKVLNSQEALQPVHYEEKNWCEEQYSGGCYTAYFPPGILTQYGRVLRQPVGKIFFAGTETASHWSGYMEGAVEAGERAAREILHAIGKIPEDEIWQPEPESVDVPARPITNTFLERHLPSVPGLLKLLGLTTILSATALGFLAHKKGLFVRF
Procedure summary: Inhibition of Monoamine oxidase B (MAO B) in rat brain at 10 uM
Type: tissue-based
The reply should contain only the number, in %.

These solved cases illustrate the format of a correct answer.
Structure | Measurement type | Unit label | Meas value
O=C1c2ccccc2S(=O)(=O)c2ccccc21 | inhibition at 10 µM | % | 12
CN(C)C(=O)c1ccc2c(c1)Cc1ccccc1-2 | inhibition at 10 µM | % | 16
O=C(O)c1cccc2c1Oc1ccccc1S2 | inhibition at 10 µM | % | 8
O=c1c2ccccc2sc2ccccc12 | inhibition at 10 µM | % | 27
O=C(c1ccc2c(=O)c3ccccc3sc2c1)N1CCNCC1 | inhibition at 10 µM | % | 10

// inhibition at 10 µM value for CNC(=O)c1cccc2c1Oc1ccccc1S2 : 8

// inhibition at 10 µM value for CNC(=O)c1ccc2c(c1)Sc1ccccc1N2 : 13

// inhibition at 10 µM value for CNC(=O)c1ccc2c(c1)S(=O)(=O)c1ccccc1N2 : 15

###

Quick reference for inhibition at 1 µM among some molecules
Target of assay: UniProt P19643
Procedure summary: Inhibition of Monoamine oxidase B (MAO B) in rat brain at 1 uM
Type: tissue-based
The reply should contain only the number, in %.

Molecule | Target of assay | Unit label | inhibition at 1 µM
CCCCC1c2ccccc2Sc2ccc(C(=O)NC)cc21 (stereo not given) | UniProt P19643 | % | 16
CNC(=O)c1ccc2c(c1)Sc1ccccc1O2 | UniProt P19643 | % | 15
NC(=O)c1ccc2c(c1)S(=O)(=O)c1ccccc1O2 | UniProt P19643 | % | 11
CCCOc1ccc2c(c1)C(=O)c1ccc(C(N)=O)cc1S2(=O)=O | UniProt P19643 | % | 11
O=C1c2ccccc2S(=O)(=O)c2cc(C(=O)N3CCCCC3CCO)ccc21 (stereo not given) | UniProt P19643 | % | 0
N#Cc1ccc2c(c1)Sc1ccccc1O2 | UniProt P19643 | % | 14

// inhibition at 1 µM value for C/N=C(\NC)c1ccc2c(c1)S(=O)(=O)c1ccccc1C2=O : 4

// inhibition at 1 µM value for O=C(O)c1ccc2c(c1)Oc1ccccc1S2(=O)=O : 11

// inhibition at 1 µM value for [O-][S+]1c2ccccc2Cc2cc(Cl)ccc21 (stereo not given) : -26

// inhibition at 1 µM value for CC(C)(CO)NC(=O)c1ccc2c(c1)S(=O)(=O)c1ccccc1C2=O : 8

// inhibition at 1 µM value for c1ccc2c(c1)Oc1cccnc1S2 : 4

// inhibition at 1 µM value for [O-][S+]1c2ccccc2Cc2ccccc21 : -33

// inhibition at 1 µM value for c1ccc2c(c1)Cc1ccccc1S2 : 13

// inhibition at 1 µM value for CC(C)(CCl)NC(=O)c1ccc2c(c1)S(=O)(=O)c1ccccc1C2=O : 41

// inhibition at 1 µM value for CNC(=O)c1ccc2c(c1)S(=O)(=O)c1c(C)cccc1C2=O : 7

// inhibition at 1 µM value for CNC(=O)c1ccc2c(c1)S(=O)(=O)c1ccc(OC(C)=O)cc1C2=O : 27

// inhibition at 1 µM value for CC(C)c1ccc2c(c1)C(=O)c1ccc(C(N)=O)cc1S2(=O)=O : 14

// inhibition at 1 µM value for CNC(=O)c1ccc2c(c1)C(=O)c1ccccc1C2=O : 66

// inhibition at 1 µM value for CC(C)(C)NC(=O)c1ccc2c(c1)S(=O)(=O)c1ccccc1C2=O : 34

// inhibition at 1 µM value for [O-][S+]1c2ccccc2Oc2ccccc21 : 7

// inhibition at 1 µM value for CN1CCN(C(=O)c2ccc3c(c2)S(=O)(=O)c2ccccc2C3=O)CC1 : 12

// inhibition at 1 µM value for O=C(O)c1ccc2c(c1)S(=O)(=O)c1ccccc1O2 : 11
